In this section, each of the sequences is paired with its reported binding signal.
Molecular target: GST-Rok-C97-191 (Bacillus subtilis subsp. subtilis str. …, UniProt O34857 97-191)
Sequence: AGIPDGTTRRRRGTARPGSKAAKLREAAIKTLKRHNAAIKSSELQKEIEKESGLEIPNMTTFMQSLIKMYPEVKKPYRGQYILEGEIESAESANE
Assay: protein binding microarray; high values mean tight binding
Conditions: protein: recombinant; tags: GST (pTH5325, pDEST15-Magic modified); dsDNA, one strand shown
Over roughly 33,000 sequences, “e-score” has its median near -0.038; the highest 2% begin near 0.33. The sample as a whole holds a higher share of the highest values than the screen did.

- sequence text: "CTTTAGGC"
  binding signal, E-score: -0.0933
- sequence text: "AGAATGCA"
  binding signal, E-score: 0.038
- sequence text: "GTCTACTA"
  binding signal, E-score: 0.29
- sequence text: "GATAGCGC"
  binding signal, E-score: 0.191
- sequence text: "GGATGAAC"
  binding signal, E-score: 0.0137
- sequence text: "AAGTTGGA"
  binding signal, E-score: -0.145
- sequence text: "GTCAGAAA"
  binding signal, E-score: 0.0136
- sequence text: "TCGACTAA"
  binding signal, E-score: 0.0796
- sequence text: "GGAAACTA"
  binding signal, E-score: 0.354
- sequence text: "CCAACTGA"
  binding signal, E-score: -0.0233
- sequence text: "AGGCCTAG"
  binding signal, E-score: 0.0496
- sequence text: "GGATAGTA"
  binding signal, E-score: 0.142
- sequence text: "CGAAACCA"
  binding signal, E-score: -0.131
- sequence text: "AGGTCACA"
  binding signal, E-score: -0.186
- sequence text: "CAAGGGCC"
  binding signal, E-score: -0.186
- sequence text: "AGGGACCA"
  binding signal, E-score: -0.0833
- sequence text: "AACTCATA"
  binding signal, E-score: 0.0551
- sequence text: "AGATAGTG"
  binding signal, E-score: 0.174
- sequence text: "ATCTACGG"
  binding signal, E-score: 0.0258
- sequence text: "AACGAGAG"
  binding signal, E-score: -0.0985
- sequence text: "AAACCACC"
  binding signal, E-score: -0.1
- sequence text: "GCAGATAA"
  binding signal, E-score: 0.127
- sequence text: "CCCATTAC"
  binding signal, E-score: -0.0975
- sequence text: "CTCTACTA"
  binding signal, E-score: 0.2
- sequence text: "CGAAACTA"
  binding signal, E-score: 0.425
- sequence text: "CGATAGTA"
  binding signal, E-score: 0.382
- sequence text: "ACCGCTAA"
  binding signal, E-score: 0.13
- sequence text: "AGTCGTAC"
  binding signal, E-score: 0.108
- sequence text: "CATAACGC"
  binding signal, E-score: 0.0154
- sequence text: "ACTGTTGC"
  binding signal, E-score: 0.119
- sequence text: "CAAATCTC"
  binding signal, E-score: 0.0537
- sequence text: "ACAAACCG"
  binding signal, E-score: -0.027
- sequence text: "ATAATTCG"
  binding signal, E-score: 0.213
- sequence text: "GAGGAAAA"
  binding signal, E-score: -0.0709
- sequence text: "GCGTGAGA"
  binding signal, E-score: -0.00817
- sequence text: "ATAAGAAT"
  binding signal, E-score: 0.215
- sequence text: "CCAAACGG"
  binding signal, E-score: -0.0693
- sequence text: "AGATAGTA"
  binding signal, E-score: 0.376
- sequence text: "CATGTCAA"
  binding signal, E-score: -0.0291
- sequence text: "CGTTCCTA"
  binding signal, E-score: 0.0168
- sequence text: "CAAATCTA"
  binding signal, E-score: 0.354
- sequence text: "CCCACTAC"
  binding signal, E-score: 0.0131
- sequence text: "CTCGAAAC"
  binding signal, E-score: 0.104
- sequence text: "CCTTACCA"
  binding signal, E-score: -0.0792
- sequence text: "GCTACGGA"
  binding signal, E-score: -0.0221
- sequence text: "AAGGAAGC"
  binding signal, E-score: -0.125

###

Target: GST-Rok-C97-191 (Bacillus subtilis subsp. subtilis str. …, UniProt O34857 97-191)
Sequence: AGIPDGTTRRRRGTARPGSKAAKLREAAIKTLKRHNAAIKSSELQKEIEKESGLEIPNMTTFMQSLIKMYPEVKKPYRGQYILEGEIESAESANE
Assay: protein binding microarray; high values mean tight binding
Details: protein: recombinant; tags: GST (pTH5325, pDEST15-Magic modified); dsDNA, one strand shown
Whole data set: some 33,000 sequences, median “e-score” near -0.038, cut for the highest 2% near 0.33. The entries come from a sample that favours the highest values as a whole.
In this section, each of the sequences is paired with its reported binding signal.

- sequence text: "CATTATAC"
  binding signal / E-score: 0.177
- sequence text: "GAGTTCAC"
  binding signal / E-score: 0.0331
- sequence text: "ATGGTGAA"
  binding signal / E-score: 0.0706
- sequence text: "GGTATTTA"
  binding signal / E-score: 0.342
- sequence text: "AAATACAG"
  binding signal / E-score: 0.123
- sequence text: "AATATTAA"
  binding signal / E-score: 0.285
- sequence text: "CATATTAC"
  binding signal / E-score: 0.22
- sequence text: "ATATTTGC"
  binding signal / E-score: 0.295
- sequence text: "CTATAATA"
  binding signal / E-score: 0.34
- sequence text: "CTATTGGC"
  binding signal / E-score: -0.0724
- sequence text: "ATGATATA"
  binding signal / E-score: 0.386
- sequence text: "CTCTTTAC"
  binding signal / E-score: 0.0967
- sequence text: "ATATTTAA"
  binding signal / E-score: 0.338
- sequence text: "AGAGCCAG"
  binding signal / E-score: -0.194
- sequence text: "GTATAATA"
  binding signal / E-score: 0.413
- sequence text: "ATATAATC"
  binding signal / E-score: 0.201
- sequence text: "GTATAACA"
  binding signal / E-score: 0.141
- sequence text: "CGATAAGA"
  binding signal / E-score: 0.0724
- sequence text: "CATATTTA"
  binding signal / E-score: 0.282
- sequence text: "AAATACGA"
  binding signal / E-score: 0.0254
- sequence text: "ATGATAGG"
  binding signal / E-score: 0.0735
- sequence text: "ATATAATA"
  binding signal / E-score: 0.446
- sequence text: "GATATTAC"
  binding signal / E-score: 0.328
- sequence text: "ATATTAAA"
  binding signal / E-score: 0.385
- sequence text: "AGCTCGTA"
  binding signal / E-score: 0.00298
- sequence text: "AACCAGCA"
  binding signal / E-score: 0.0878
- sequence text: "ACATTTAC"
  binding signal / E-score: 0.315
- sequence text: "AACTGAAC"
  binding signal / E-score: 0.106
- sequence text: "ATGATATG"
  binding signal / E-score: 0.226
- sequence text: "ACCCACGT"
  binding signal / E-score: -0.188
- sequence text: "CAGCTCGG"
  binding signal / E-score: -0.0345
- sequence text: "GATTATAC"
  binding signal / E-score: 0.238
- sequence text: "GACAGGGA"
  binding signal / E-score: -0.0489
- sequence text: "GCGGACGA"
  binding signal / E-score: -0.188
- sequence text: "AAGCTGAT"
  binding signal / E-score: -0.0275
- sequence text: "ATATTAAC"
  binding signal / E-score: 0.296
- sequence text: "ATTTTTAA"
  binding signal / E-score: 0.146
- sequence text: "CTATTAAA"
  binding signal / E-score: 0.0376
- sequence text: "CCGTACTA"
  binding signal / E-score: 0.201
- sequence text: "TCCTAAAA"
  binding signal / E-score: 0.103
- sequence text: "AGTATTTA"
  binding signal / E-score: 0.301
- sequence text: "GAAATGGC"
  binding signal / E-score: -0.16
- sequence text: "AGAGCTAA"
  binding signal / E-score: 0.148
- sequence text: "TCGAGGCA"
  binding signal / E-score: 0.00484
- sequence text: "CACGATCA"
  binding signal / E-score: -0.0988
- sequence text: "GTATAAAA"
  binding signal / E-score: 0.32

###

In this section, each of the sequences is paired with its reported binding signal.
Target: GST-Rok-C97-191 (Bacillus subtilis subsp. subtilis str. …, UniProt O34857 97-191)
Sequence: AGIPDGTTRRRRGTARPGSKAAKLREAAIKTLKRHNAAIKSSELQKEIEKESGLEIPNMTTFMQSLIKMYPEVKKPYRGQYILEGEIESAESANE
Experiment: protein binding microarray; Rok is a gene silencer of Bacillus subtilis; high values mean tight binding
Conditions: protein: recombinant; tags: GST (pTH5325, pDEST15-Magic modified); dsDNA, one strand shown
In all, about 33,000 sequences were measured (“e-score”: median about -0.038, highest 2% from about 0.33 on). This excerpt belongs to a sample that is enriched for the highest values.
parameter: binding signal (E-score)

- sequence text: "GTCATCAA"
  number: -0.132
- sequence text: "CGTAGCTA"
  number: 0.289
- sequence text: "ATGTAAAG"
  number: 0.164
- sequence text: "CACTACCG"
  number: 0.065
- sequence text: "ATTTTCCG"
  number: 0.329
- sequence text: "ACATAGAC"
  number: 0.0775
- sequence text: "CCAGCGTC"
  number: -0.163
- sequence text: "AAAAGACG"
  number: 0.0272
- sequence text: "GGTAGCGA"
  number: 0.0646
- sequence text: "ATCAGCTA"
  number: 0.165
- sequence text: "AACTACCC"
  number: 0.338
- sequence text: "ACCTACCT"
  number: 0.154
- sequence text: "ATTTTCCA"
  number: 0.105
- sequence text: "ACATAGAG"
  number: -0.0925
- sequence text: "AGGAAGGA"
  number: -0.123
- sequence text: "CGATCTAC"
  number: 0.335
- sequence text: "CAATCTAA"
  number: 0.232
- sequence text: "ATGTAAAC"
  number: 0.031
- sequence text: "CGGCAAAC"
  number: 0.168
- sequence text: "GAAATTCA"
  number: 0.106
- sequence text: "ATGTAATA"
  number: 0.32
- sequence text: "GAATCTAA"
  number: 0.188
- sequence text: "ACTAGCTA"
  number: 0.397
- sequence text: "GAATCTCC"
  number: 0.0847
- sequence text: "AACTACCG"
  number: 0.41
- sequence text: "AATTCGAT"
  number: 0.215
- sequence text: "CATGACTC"
  number: 0.0199
- sequence text: "CAATTTTA"
  number: 0.234
- sequence text: "GAGTCTTA"
  number: -0.0226
- sequence text: "AAGCGGGG"
  number: -0.141
- sequence text: "GCACTTGA"
  number: -0.0251
- sequence text: "AGTAGCTC"
  number: 0.14
- sequence text: "AACTATCT"
  number: 0.294
- sequence text: "AACTACCT"
  number: 0.412
- sequence text: "GATAAATA"
  number: 0.323
- sequence text: "TCTCCGAA"
  number: 0.161
- sequence text: "ATTTTCCC"
  number: -0.00582
- sequence text: "GAATCTAC"
  number: 0.423
- sequence text: "CTGTAAAA"
  number: 0.0478
- sequence text: "ACATAGAT"
  number: 0.33
- sequence text: "CACTACCA"
  number: 0.0866
- sequence text: "GACTACCC"
  number: 0.0938
- sequence text: "TAAAAAAA"
  number: 0.328
- sequence text: "CGATCTAG"
  number: 0.26
- sequence text: "TTGTAAAA"
  number: 0.265
- sequence text: "AAACTGGG"
  number: -0.197
